- target: ADAMTS-4 recombinant protein (Homo sapiens (Human))
- Sequence (O75173 213-685): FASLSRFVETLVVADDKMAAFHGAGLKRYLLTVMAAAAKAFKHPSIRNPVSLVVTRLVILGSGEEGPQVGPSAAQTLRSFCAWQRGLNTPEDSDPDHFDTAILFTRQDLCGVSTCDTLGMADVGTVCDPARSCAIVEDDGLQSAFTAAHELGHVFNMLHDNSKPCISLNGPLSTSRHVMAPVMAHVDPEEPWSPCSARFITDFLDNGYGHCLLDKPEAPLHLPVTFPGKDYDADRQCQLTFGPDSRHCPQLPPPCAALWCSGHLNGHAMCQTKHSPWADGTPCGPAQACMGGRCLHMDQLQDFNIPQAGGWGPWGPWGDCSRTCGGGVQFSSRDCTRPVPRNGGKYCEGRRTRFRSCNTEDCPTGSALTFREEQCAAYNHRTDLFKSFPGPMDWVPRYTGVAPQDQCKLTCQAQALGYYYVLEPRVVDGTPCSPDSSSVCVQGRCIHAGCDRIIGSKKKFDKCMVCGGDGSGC
- assay notes: In vitro fluorescence (FRET-peptide) enzymatic assay of ADAMTS-4 activity
- run parameters: FRET peptide substrate 15 μM, 10 nM enzyme, 37° C. 3 hours
pIC50: −log10 of the molar value.
pIC50 listing for selected compounds.
result type: pIC50

INSERT INTO measurements (compound, target, recorded_number) VALUES
  ('O=C1NC(=O)[C@](CCC(=O)N2Cc3cc(F)c(C(F)F)cc3C2)(C2CC2)N1 [Example 74]', 'ADAMTS-4 recombinant protein (Homo sapiens (Human))', 7.25),
  ('Cc1nc(C2(CCC(=O)N3Cc4cc(Cl)c(C(F)(F)F)cc4C3)NC(=O)NC2=O)co1 (stereo not shown) [Example 81]', 'ADAMTS-4 recombinant protein (Homo sapiens (Human))', 6.59),
  ('C[C@H]1CN(C(=O)CC[C@@]2(C3CC3)NC(=O)NC2=O)CCc2ccc(Cl)cc21 [Example 21]', 'ADAMTS-4 recombinant protein (Homo sapiens (Human))', 7.70),
  ('O=C1NC(=O)[C@](CCC(=O)N2CCc3ccccc3CC2)(C2CC2)N1 [Example 9]', 'ADAMTS-4 recombinant protein (Homo sapiens (Human))', 7.38);

----------
- System: mouse femoral head cartilage
- assay notes: Mouse explant assay (IL-1α induced GAG release)
- Type: cell-based
- run parameters: inhibition of GAG release, IL-1α 1 ng/ml, 72 hours, compound 2 μM
Hi, to clarify the labels: Criterion met covers inhibition at 2 µM from 40% upward, Criterion not met covers anything below 40%.

INSERT INTO measurements (molecule, target, category) VALUES
  ('O=C1NC(=O)[C@](CCC(=O)N2Cc3ccc(C(F)(F)F)cc3C2)(C2CC2)N1 [Example 1]', 'mouse femoral head cartilage', 'Criterion not met'),
  ('O=C1NC(=O)[C@](CCC(=O)N2CCc3ccccc3CC2)(C2CC2)N1 [Example 9]', 'mouse femoral head cartilage', 'Criterion not met'),
  ('O=C1NC(=O)[C@](CCC(=O)N2Cc3cc(Cl)c(C(F)(F)F)cc3C2)(C2CC2)N1 [Example 40]', 'mouse femoral head cartilage', 'Criterion not met'),
  ('COc1ccc2c(c1)CCN(C(=O)CC[C@@]1(C3CC3)NC(=O)NC1=O)CC2 [Example 5]', 'mouse femoral head cartilage', 'Criterion not met'),
  ('O=C1NC(=O)[C@](CCC(=O)N2Cc3cc(Cl)c(Cl)cc3C2)(C2CC2)N1 [Example 20]', 'mouse femoral head cartilage', 'Criterion met'),
  ('CC1CN(C(=O)CC[C@@]2(C3CC3)NC(=O)NC2=O)CCc2ccc(Cl)cc21 (some centres unmarked) [Example 8]', 'mouse femoral head cartilage', 'Criterion not met'),
  ('O=C1NC(=O)C(CC(CO)C(=O)N2Cc3cc(Cl)c(Cl)cc3C2)(C2CC2)N1 (centres unmarked) [Example 42]', 'mouse femoral head cartilage', 'Criterion met');

----------
- target: ADAMTS-5 recombinant protein (Homo sapiens (Human), UniProt Q9UNA0)
- Sequence (Q9UNA0 262-622): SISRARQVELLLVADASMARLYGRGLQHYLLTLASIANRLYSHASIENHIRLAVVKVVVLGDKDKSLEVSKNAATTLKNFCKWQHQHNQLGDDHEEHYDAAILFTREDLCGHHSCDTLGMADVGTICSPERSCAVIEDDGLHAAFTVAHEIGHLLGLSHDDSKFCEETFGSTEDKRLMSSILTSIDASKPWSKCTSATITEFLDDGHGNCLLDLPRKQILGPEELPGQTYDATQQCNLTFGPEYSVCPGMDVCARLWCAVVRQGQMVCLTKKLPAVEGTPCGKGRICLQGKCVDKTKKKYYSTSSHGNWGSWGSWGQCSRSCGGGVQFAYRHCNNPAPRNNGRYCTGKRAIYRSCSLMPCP
- assay notes: In vitro fluorescence (FRET-peptide) enzymatic assay of ADAMTS-5 activity
- Assay type: biochemical
- run parameters: FRET peptide substrate 8 μM, 10 nM enzyme, 37° C. 3 hours
Kindly apply the following: Yes if IC50 is less than 60 nM, No in every other case.

INSERT INTO measurements (compound, target, category) VALUES
  ('CC1(C)CN(C(=O)CC[C@@]2(C3CC3)NC(=O)NC2=O)CCc2ccccc21 [Example 26]', 'ADAMTS-5 recombinant protein (Homo sapiens (Human), UniProt Q9UNA0)', 'No'),
  ('O=C1NC(=O)[C@](CCC(=O)N2Cc3cc(Br)c(C(F)(F)F)cc3C2)(C2CC2)N1 [Example 59]', 'ADAMTS-5 recombinant protein (Homo sapiens (Human), UniProt Q9UNA0)', 'Yes'),
  ('O=C1NC(=O)[C@](CCC(=O)N2CCc3ccccc3CC2)(C2CC2)N1 [Example 9]', 'ADAMTS-5 recombinant protein (Homo sapiens (Human), UniProt Q9UNA0)', 'Yes'),
  ('O=C1NC(=O)C(CCC(=O)N2Cc3cc(Cl)c(C(F)(F)F)cc3C2)(c2ncccn2)N1 (centres unmarked) [Example 79]', 'ADAMTS-5 recombinant protein (Homo sapiens (Human), UniProt Q9UNA0)', 'No'),
  ('Cc1cc(C2(CCC(=O)N3Cc4cc(Cl)c(C(F)(F)F)cc4C3)NC(=O)NC2=O)no1 (centres unmarked) [Example 75]', 'ADAMTS-5 recombinant protein (Homo sapiens (Human), UniProt Q9UNA0)', 'No'),
  ('O=C1NC(=O)[C@](CCC(=O)N2Cc3ccc(Cl)cc3C2)(C2CC2)N1 [Example 2]', 'ADAMTS-5 recombinant protein (Homo sapiens (Human), UniProt Q9UNA0)', 'No'),
  ('O=C1NC(=O)C(CCC(=O)N2Cc3ccc(C(F)(F)F)cc3C2)(c2nccs2)N1 (centres unmarked) [Example 43]', 'ADAMTS-5 recombinant protein (Homo sapiens (Human), UniProt Q9UNA0)', 'No'),
  ('O=C1NC(=O)[C@](CCC(=O)N2Cc3cc(Cl)c(C(F)(F)F)cc3C2)(C2CC2)N1 [Example 40]', 'ADAMTS-5 recombinant protein (Homo sapiens (Human), UniProt Q9UNA0)', 'Yes'),
  ('O=C1NC(=O)[C@](CCC(=O)N2Cc3ccccc3C2)(C2CC2)N1 [Example 11]', 'ADAMTS-5 recombinant protein (Homo sapiens (Human), UniProt Q9UNA0)', 'No'),
  ('O=C1NC(=O)[C@](CCC(=O)N2CCc3ccc(F)cc3CC2)(C2CC2)N1 [Example 44]', 'ADAMTS-5 recombinant protein (Homo sapiens (Human), UniProt Q9UNA0)', 'Yes'),
  ('O=C1NC(=O)[C@](CCC(=O)N2Cc3cc(Cl)c([N+](=O)[O-])cc3C2)(C2CC2)N1 [Example 50]', 'ADAMTS-5 recombinant protein (Homo sapiens (Human), UniProt Q9UNA0)', 'No'),
  ('O=C1NC(=O)[C@](CCC(=O)N2CCc3ccc(C(F)(F)F)cc3CC2)(C2CC2)N1 [Example 45]', 'ADAMTS-5 recombinant protein (Homo sapiens (Human), UniProt Q9UNA0)', 'Yes'),
  ('CC1CN(C(=O)CC[C@@]2(C3CC3)NC(=O)NC2=O)CCc2ccc(Cl)cc21 (some centres unmarked) [Example 8]', 'ADAMTS-5 recombinant protein (Homo sapiens (Human), UniProt Q9UNA0)', 'Yes'),
  ('O=C1NC(=O)[C@](CCC(=O)N2Cc3cc(F)c(C(F)(F)F)cc3C2)(C2CC2)N1 [Example 39]', 'ADAMTS-5 recombinant protein (Homo sapiens (Human), UniProt Q9UNA0)', 'No'),
  ('O=C1NC(=O)[C@](CCC(=O)N2Cc3ccncc3C2)(C2CC2)N1 [Example 13]', 'ADAMTS-5 recombinant protein (Homo sapiens (Human), UniProt Q9UNA0)', 'No'),
  ('COc1cc2c(cc1Cl)CN(C(=O)CC[C@@]1(C3CC3)NC(=O)NC1=O)C2 [Example 35]', 'ADAMTS-5 recombinant protein (Homo sapiens (Human), UniProt Q9UNA0)', 'No'),
  ('C[C@H]1CN(C(=O)CC[C@@]2(C3CC3)NC(=O)NC2=O)CCc2ccc(Cl)cc21 [Example 21]', 'ADAMTS-5 recombinant protein (Homo sapiens (Human), UniProt Q9UNA0)', 'Yes');

----------
Each record here notes measured pIC50.
- target: ADAMTS-4 recombinant protein (Homo sapiens (Human))
- assay notes: In vitro fluorescence (FRET-peptide) enzymatic assay of ADAMTS-4 activity
- run parameters: FRET peptide substrate 15 μM, 10 nM enzyme, 37° C. 3 hours
- Description: A FRET (fluorescence resonance energy transfer) peptide was cleaved by recombinant ADAMTS-4 or ADAMTS-5 proteins into two separate fragments resulting in an increase of fluorescence signal which was quantified. […] An assay buffer containing 50 mM HEPES pH 7.5, 100 mM NaCl, 5 mM CaCl2, 0.1% CHAPS and 5% Glycerol was prepared. […] The fluorescence signal in each well was determined, after incubation at 37° C. for 3 hours, on a TECAN plate reader (Excitation, 490 nm; Emission, 520 nm). […]
pIC50: −log10 of the molar value.
result type: pIC50

INSERT INTO measurements (molecule, recorded_number) VALUES
  ('CC1CN(C(=O)CC[C@@]2(C3CC3)NC(=O)NC2=O)CCc2ccc(Cl)cc21 (some centres unmarked)', 7.18),
  ('O=C1NC(=O)[C@](C[C@@H](CO)C(=O)N2Cc3cc(Cl)c(C(F)(F)F)cc3C2)(C2CC2)N1 (single isomer, unassigned)', 7.80),
  ('Cn1ccc(C2(CCC(=O)N3Cc4cc(Cl)c(C(F)(F)F)cc4C3)NC(=O)NC2=O)n1 (centres unmarked)', 6.40),
  ('Cc1cc(C2(CCC(=O)N3Cc4cc(Cl)c(C(F)(F)F)cc4C3)NC(=O)NC2=O)n[nH]1 (centres unmarked)', 6.80),
  ('O=C1NC(=O)C(CCC(=O)N2Cc3cc(Cl)c(C(F)(F)F)cc3C2)(c2ncccn2)N1 (centres unmarked)', 6.60),
  ('O=C1NC(=O)[C@](CCC(=O)N2Cc3ccncc3C2)(C2CC2)N1', 5.85),
  ('COc1ccc2c(c1)CCN(C(=O)CC[C@@]1(C3CC3)NC(=O)NC1=O)CC2', 7.34),
  ('O=C1NC(=O)[C@](CCC(=O)N2Cc3ccc(Cl)cc3C2)(C2CC2)N1', 7.04),
  ('O=C1NC(=O)[C@](CCC(=O)N2Cc3ccc(OC(F)(F)F)cc3C2)(C2CC2)N1', 6.77),
  ('CC1c2cc(C(F)(F)F)c(Cl)cc2CN1C(=O)CC[C@@]1(C2CC2)NC(=O)NC1=O (some centres unmarked)', 7.44),
  ('Cc1cc2c(cc1Cl)CN(C(=O)CC[C@@]1(C3CC3)NC(=O)NC1=O)C2', 7.37),
  ('CC1(C)CN(C(=O)CC[C@@]2(C3CC3)NC(=O)NC2=O)CCc2ccccc21', 5.42),
  ('CC1CN(C(=O)CC[C@@]2(C3CC3)NC(=O)NC2=O)CCc2cc(Cl)c(Cl)cc21 (some centres unmarked)', 8.30),
  ('Cn1ccnc1C1(CCC(=O)N2Cc3cc(Cl)c(C(F)(F)F)cc3C2)NC(=O)NC1=O (centres unmarked)', 7.21),
  ('C[C@@H]1c2ccccc2CN1C(=O)CC[C@@]1(C2CC2)NC(=O)NC1=O', 6.54),
  ('CC(C[C@@]1(C2CC2)NC(=O)NC1=O)C(=O)N1Cc2cc(Cl)c(Cl)cc2C1 (mixture of isomers)', 8.15),
  ('Nc1cc2c(cc1Cl)CN(C(=O)CC[C@@]1(C3CC3)NC(=O)NC1=O)C2', 7.96);

Just for reference, patent US20240299360A1 is where these values come from.
